Data origin: paper PMC6627609

Listed here: items and their measured Inhibition (%).
# test.system: LsrK (Salmonella typhimurium, UniProt Q8ZKQ6)
# Sequence (Q8ZKQ6 whole entry): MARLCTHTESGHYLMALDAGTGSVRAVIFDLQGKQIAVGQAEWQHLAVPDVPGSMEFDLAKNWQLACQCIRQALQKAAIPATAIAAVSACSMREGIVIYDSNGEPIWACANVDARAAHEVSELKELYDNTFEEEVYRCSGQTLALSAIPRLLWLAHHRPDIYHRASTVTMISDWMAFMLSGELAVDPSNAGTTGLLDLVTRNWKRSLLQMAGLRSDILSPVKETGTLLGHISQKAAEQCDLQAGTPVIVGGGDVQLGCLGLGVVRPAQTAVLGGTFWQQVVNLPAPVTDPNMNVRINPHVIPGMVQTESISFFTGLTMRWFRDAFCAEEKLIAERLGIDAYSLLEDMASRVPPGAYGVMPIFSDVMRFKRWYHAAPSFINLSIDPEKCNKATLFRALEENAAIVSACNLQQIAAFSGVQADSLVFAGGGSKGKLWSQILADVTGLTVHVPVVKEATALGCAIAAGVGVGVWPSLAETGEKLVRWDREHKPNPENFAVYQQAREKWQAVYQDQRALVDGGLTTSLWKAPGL
# protocol.description: biochemical
# Format: biochemical, S. typhimurium
# experimental.setup: 50 µM
# respond with the number and nothing more

O.O=C(O)[C@@H]1[C@H]2C[C@H]3c4[nH]c5ccccc5c4CCN3C[C@@H]2CC[C@@H]1O [YOHIMBIC ACID HYDRATE]: 1
Cc1occc(=O)c1O: 1
CCOc1ccc(C(=O)c2ccc(O)c(O)c2O)cc1 [2.3.4-TRIHYDROXY-4'-ETHOXYBENZOPHENONE]: 79

Incoming: Look up and state reported Inhibition (%) for OCC(O)C(O)C(O)CO (centres unmarked)
Outgoing: 0

Incoming: Look up and state reported Inhibition (%) for `COc1ccc(-c2coc3cc(OC)ccc3c2=O)cc1`
Outgoing: 1

Incoming: Look up and state reported Inhibition (%) for `COC[C@]12CN(C=O)[C@@H]3[C@@H]4[C@H](OC)[C@H]1[C@@]3([C@@H](OC)C[C@H]2O)[C@@H]1C[C@@]2(O)[C@H](OC(=O)c3ccccc3)[C@@H]1[C@]4(OC(C)=O)[C@@H](O)[C@@H]2OC`
Outgoing: 0

Incoming: Look up and state reported Inhibition (%) for `COc1ccc([C@@H]2CC(=O)c3c(O)cc(O[C@@H]4O[C@H](CO[C@@H]5O[C@@H](C)[C@H](O)[C@@H](O)[C@H]5O)[C@@H](O)[C@H](O)[C@H]4O)cc3O2)cc1O`
Outgoing: 1
